Measured CC50 at 3 days, listed per entry for reference.
# ASSAY PROTOCOL: Cytotoxicity in HepG2.117 cells, ATPlite Luminescence Assay
# Assay type: cell-based, human
# CONDITION PARAMETERS: human, incubated for 3 days, mean value, read-out: TOX-HepG2.117 CC50 (μM, mean value)

# COMPOUND, RELATION OPERATOR, CC50 at 3 days [µM]
records = [
    ("C[C@@H]1Cc2nn3c(c2CN1C(=O)c1ccc(Cl)c(Cl)c1)C(=O)N(Cc1cccnc1C(F)(F)F)CC3 [Example C233]", "=", 29.8),
    ("COc1ccc(CN2CCn3nc4c(c3C2=O)CN(C(=O)c2ccc(Cl)c(Cl)c2)[C@H](C)C4)cn1 [Example C106]", "=", 33.8),
    ("CC(c1ccc(F)nc1)N1CCn2nc3c(c2C1=O)CN(C(=O)c1ccc(Cl)c(Cl)c1)[C@H](C)C3 (stereo partly shown) [Example C128]", ">", 50),
    ("CC(c1nccs1)N1CCn2nc3c(c2C1=O)CN(C(=O)c1ccc(Cl)c(Cl)c1)[C@H](C)C3 (stereo partly shown) [Example C218]", ">", 50),
    ("CC(c1ccc(F)cc1F)N1CCn2nc3c(c2C1=O)CN(C(=O)c1ccc(Cl)c(Cl)c1)[C@H](C)C3 (stereo partly shown) [Example C192]", "=", 39.7),
    ("CC(c1c(F)cccc1F)N1CCn2nc3c(c2C1=O)CN(C(=O)c1ccc(Cl)c(Cl)c1)[C@H](C)C3 (stereo partly shown) [Example C248]", "=", 25),
    ("Cc1noc(C)c1CN1CCn2nc3c(c2C1=O)CN(C(=O)c1ccc(Cl)c(Cl)c1)[C@H](C)C3 [Example C142]", ">", 50),
]
